Examples of molecules with documented Tmax follow.
assay: Single dose PK study in male CD-1 mice
Assay type: in vivo, mouse
reportedConditions: mouse, whole blood, single dose 3 mg/kg po, blood
State the answer as a number, implicitly in min.

CC(C)N1C(=O)COCc2ccc(-c3cccc(NS(C)(=O)=O)c3)cc21 [OXS007002]	25.2

Request: Name the reported Tmax value associated with the molecule CS(=O)(=O)Nc1cccc(-c2ccc3c(c2)N(CC(F)(F)F)C(=O)COC3)c1 [Compound 11]
Response: 19.8

Request: Continue with CS(=O)(=O)Nc1cccc(-c2ccc3c(c2)N(c2ccccc2)C(=O)COC3)c1 [Compound 14]
Response: 72

###

This listing pairs compounds with measured Cmax.
assay: Single dose PK study in male CD-1 mice
Assay type: in vivo, mouse
reportedConditions: mouse, whole blood, single dose 3 mg/kg po, blood
Reply numerically in ng/mL, unit not repeated.

Sample answers from the record:
CS(=O)(=O)Nc1cccc(-c2ccc3c(c2)N(CC(F)(F)F)C(=O)COC3)c1	160
CC(C)N1C(=O)COCc2ccc(-c3cccc(NS(C)(=O)=O)c3)cc21	104

Request: Looking for the measured Cmax of `CS(=O)(=O)Nc1cccc(-c2ccc3c(c2)N(c2ccccc2)C(=O)COC3)c1` , can you help?
Response: 44

###

assay: Metabolic stability in mouse S9 fraction
Format: in vitro ADME
reportedConditions: ER = Clint/species flow rate (mice: 90 mL/min/kg)
Item-by-item account of ER in mS9 (extraction ratio)
Answer with the value's number alone.

Some solved cases for reference:
CS(=O)(=O)Nc1cccc(-c2ccc3c(c2)N(CC2CC2)C(=O)COC3)c1	0.54
CS(=O)(=O)Nc1cccc(-c2ccc3c(c2)N(CC(F)(F)F)C(=O)COC3)c1	0.05
COC(=O)Nc1cccc(-c2ccc3c(c2)N(C(C)C)C(=O)COC3)c1	0.31
CC(C)CN1C(=O)COCc2ccc(-c3cccc(NS(C)(=O)=O)c3)cc21	0.51
CCN1C(=O)COCc2ccc(-c3cccc(NS(C)(=O)=O)c3)cc21	0.25

Request: Sample `CC(C)N1C(=O)COCc2ccc(-c3ccc(F)c(NS(C)(=O)=O)c3)cc21` — what was its ER in mS9 (extraction ratio)?
Response: 0.21

Request: Next record, please: `CS(=O)(=O)Nc1cccc(-c2ccc3c(c2)N(C2CCCC2)C(=O)COC3)c1`
Response: 0.83

Request: // query: `CS(=O)(=O)Nc1cccc(-c2ccc3c(c2)N(C2COC2)C(=O)COC3)c1`
Response: 0.08

###

Test system: HL-60 cells
assay: CD11b expression assay by flow cytometry in HL-60 cells
Format: cell-based, human
reportedConditions: LipE = -LogEC50-cLogP; EC50 of CD11b assay in HL-60
The following compounds are listed with their measured LipE (lipophilic efficiency) values.

A selection of reference data follows.
COC(=O)Nc1cccc(-c2ccc3c(c2)N(C(C)C)C(=O)COC3)c1	3.7
CCN1C(=O)COCc2ccc(-c3cccc(NS(C)(=O)=O)c3)cc21	3.8
COc1ccc(-c2ccc3c(c2)N(C(C)C)C(=O)COC3)cc1NS(C)(=O)=O	4.2

Request: Any idea what its LipE (lipophilic efficiency) is? The compound is `CS(=O)(=O)Nc1cccc(-c2ccc3c(c2)N(C2CCCC2)C(=O)COC3)c1`
Response: 4.0

Request: Item: `CCCS(=O)(=O)Nc1cccc(-c2ccc3c(c2)N(C(C)C)C(=O)COC3)c1`
Response: 2.5

Request: Can you check `CC(C)N1C(=O)COCc2ccc(-c3cccc(N)c3)cc21` next?
Response: 3.5

Request: Next record, please: `CC(C)CN1C(=O)COCc2ccc(-c3cccc(NS(C)(=O)=O)c3)cc21`
Response: 4.0

Request: Please give the result for `CC(C)N1C(=O)COCc2ccc(-c3cccc(NS(C)(=O)=O)c3)cc21` too.
Response: 4.5

Request: Also need `CS(=O)(=O)Nc1cccc(-c2ccc3c(c2)N(c2ccccc2)C(=O)COC3)c1` , thanks.
Response: 3.9

Request: Now consider `CS(=O)(=O)Nc1cccc(-c2ccc3c(c2)N(CC2CC2)C(=O)OC3)c1` and answer again.
Response: 2.5

Request: Now the same for `CC(C)N1C(=O)COCc2ccc(-c3ccc(F)c(NS(C)(=O)=O)c3)cc21`
Response: 4.0

Request: Query `CC(C)N1C(=O)COCc2ccc(-c3cccc(N(C)C)c3)cc21` next
Response: 2.4

Request: Repeat with `CS(=O)(=O)Nc1cccc(-c2ccc3c(c2)N(CC(F)(F)F)C(=O)COC3)c1`
Response: 3.8

Request: Entry to check: `CS(=O)(=O)Nc1cccc(-c2ccc3c(c2)N(CC2CC2)C(=O)COC3)c1`
Response: 4.3

Request: Likewise for `CC(C)N1C(=O)COCc2ncc(-c3cccc(NS(C)(=O)=O)c3)cc21` ?
Response: 4.9

Request: Queued: `Cc1ccc(-c2ccc3c(c2)N(C(C)C)C(=O)COC3)cc1NS(C)(=O)=O`
Response: 4.1
